Values from ChEMBL document CHEMBL1145802

Measurement target: Sigma 2 receptor
Assay comment: Binding affinity against Sigma receptor type 2 was determined by the displacement of [3H]DTG/dextrallorphan radioligand
pKi: −log10 of the molar value.
Experimental endpoint: pKi

Fc1ccc(N(CCCN2CCNCC2)c2ccc(F)cc2)cc1 :: 6.41
C[C@@H]1CN(CCCN(c2ccc(F)cc2)c2ccc(F)cc2)C[C@@H](C)N1CCCc1ccccc1 :: 7.73

1 = Fc1ccc(N(CCCN2CCN(Cc3ccccc3)CC2)c2ccc(F)cc2)cc1
2 = C[C@@H]1CN(CCCN(c2ccccc2)c2ccccc2)C[C@@H](C)N1CCc1ccc(Cl)c(Cl)c1
[in] Of 1 and 2 , whose reported pKi is the larger number? # reply format: chosen label
[out] 1

* * *

pKi: −log10 of the molar value.
Record: pKi reported on UniProt P23977.
Experimental endpoint: pKi

OC(CCN1CCN(CCCN(c2ccc(F)cc2)c2ccc(F)cc2)CC1)c1ccccc1 (stereo not drawn) :: 8.07

P = C[C@@H]1CN(CCCn2c3ccc(Br)cc3c3cc(Br)ccc32)C[C@@H](C)N1
Q = C[C@@H]1CN(CCCn2c3ccccc3c3cc([N+](=O)[O-])ccc32)C[C@@H](C)N1
[in] Of P and Q , whose reported pKi is the larger number? # reply format: chosen label
[out] Q

* * *

Organism: Cavia porcellus
Assay comment: Ratio of binding affinities for dopamine transporter over sigma-1 receptor
Experimental endpoint: Ratio

Here's what some known entries look like.
C[C@@H]1CN(CCCN(c2ccccc2)c2ccccc2)C[C@@H](C)N1CCCc1ccccc1 :: 1.6
C[C@@H]1CN(CCCN(c2ccccc2)c2ccccc2)C[C@@H](C)N1 :: 0.2
C[C@@H]1CN(CCCn2c3ccccc3c3cc(N)ccc32)C[C@@H](C)N1 :: 2.4
Fc1ccc(N(CCCN2CCN(Cc3ccccc3)CC2)c2ccc(F)cc2)cc1 :: 0.5
C[C@@H]1CN(CCCN(c2ccccc2)c2ccccc2)C[C@@H](C)N1CCc1ccc(Cl)c(Cl)c1 :: 0.1
C[C@@H]1CN(CCCN(c2ccc(F)cc2)c2ccc(F)cc2)C[C@@H](C)N1CCCc1ccccc1 :: 0.5
Fc1ccc(N(CCCN2CCN(CCCc3ccccc3)CC2)c2ccc(F)cc2)cc1 :: 3.7
C[C@@H]1CN(CCCn2c3ccccc3c3ccccc32)C[C@@H](C)N1C :: 1.3

P = C[C@@H]1CN(CCCN(c2ccc(F)cc2)c2ccc(F)cc2)C[C@@H](C)N1
Q = C[C@@H]1CN(CCCn2c3ccccc3c3cc([N+](=O)[O-])ccc32)C[C@@H](C)N1
R = Fc1ccc(N(CCCN2CCNCC2)c2ccc(F)cc2)cc1
S = C[C@@H]1CN(CCCn2c3ccccc3c3ccccc32)C[C@@H](C)N1CCCc1ccccc1
[in] Order the 4 compounds from highest to lowest Ratio. // format: requested-order list of labels
[out] R, Q, P, S

* * *

Measurement target: Monoamine transporters; serotonin & dopamine (Rattus norvegicus) (UniProt P31652+P23977)
Sequence (P23977 whole entry, looked up): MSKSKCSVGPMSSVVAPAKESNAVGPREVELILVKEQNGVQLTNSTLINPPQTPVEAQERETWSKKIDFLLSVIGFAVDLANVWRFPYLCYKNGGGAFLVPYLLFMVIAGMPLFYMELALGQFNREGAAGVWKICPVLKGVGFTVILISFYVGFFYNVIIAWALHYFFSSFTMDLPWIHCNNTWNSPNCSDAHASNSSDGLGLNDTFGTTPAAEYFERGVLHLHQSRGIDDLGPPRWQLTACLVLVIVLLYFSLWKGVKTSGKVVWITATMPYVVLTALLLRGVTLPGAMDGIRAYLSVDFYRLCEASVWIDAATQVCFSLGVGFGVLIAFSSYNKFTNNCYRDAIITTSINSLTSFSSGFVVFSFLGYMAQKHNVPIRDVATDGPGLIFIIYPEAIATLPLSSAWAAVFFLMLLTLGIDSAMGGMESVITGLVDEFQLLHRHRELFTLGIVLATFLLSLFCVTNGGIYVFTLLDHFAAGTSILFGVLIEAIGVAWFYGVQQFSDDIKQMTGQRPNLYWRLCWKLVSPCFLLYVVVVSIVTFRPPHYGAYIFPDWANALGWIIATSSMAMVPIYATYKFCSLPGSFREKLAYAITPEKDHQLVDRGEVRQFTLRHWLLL
Sequence (P31652 whole entry, looked up): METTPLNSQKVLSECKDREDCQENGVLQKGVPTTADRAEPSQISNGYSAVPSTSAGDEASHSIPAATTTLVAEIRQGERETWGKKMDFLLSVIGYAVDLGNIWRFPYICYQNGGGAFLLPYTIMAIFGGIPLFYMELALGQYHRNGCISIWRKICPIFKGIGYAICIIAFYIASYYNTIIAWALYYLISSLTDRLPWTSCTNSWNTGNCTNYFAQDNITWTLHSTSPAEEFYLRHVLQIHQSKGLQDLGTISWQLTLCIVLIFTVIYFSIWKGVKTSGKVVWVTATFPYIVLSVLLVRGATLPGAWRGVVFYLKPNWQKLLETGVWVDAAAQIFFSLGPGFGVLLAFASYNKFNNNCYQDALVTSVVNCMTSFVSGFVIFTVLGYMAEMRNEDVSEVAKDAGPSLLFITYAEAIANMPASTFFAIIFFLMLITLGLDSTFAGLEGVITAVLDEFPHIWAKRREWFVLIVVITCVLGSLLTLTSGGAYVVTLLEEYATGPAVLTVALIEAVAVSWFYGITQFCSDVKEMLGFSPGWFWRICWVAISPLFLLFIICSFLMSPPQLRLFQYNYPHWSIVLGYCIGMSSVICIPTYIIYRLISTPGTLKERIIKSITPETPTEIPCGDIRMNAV
Assay comment: Ratio for the binding affinities of dopamine transporter over serotonin transporter
Format: protein assay
Experimental endpoint: Ratio

C[C@@H]1CN(CCCN(c2ccc(F)cc2)c2ccc(F)cc2)C[C@@H](C)N1 :: 170
Fc1ccc(N(CCCN2CCNCC2)c2ccc(F)cc2)cc1 :: 2
C[C@@H]1CN(CCCN(c2ccc(F)cc2)c2ccc(F)cc2)C[C@@H](C)N1CCCc1ccccc1 :: 94
C[C@@H]1CN(CCCN(c2ccccc2)c2ccccc2)C[C@@H](C)N1CCCc1ccccc1 :: 20
C[C@@H]1CN(CCCN(c2ccccc2)c2ccccc2)C[C@@H](C)N1CCc1ccc(Cl)c(Cl)c1 :: 18
Fc1ccc(N(CCCN2CCN(CCCc3ccccc3)CC2)c2ccc(F)cc2)cc1 :: 67

a = Fc1ccc(N(CCCN2CCN(Cc3ccccc3)CC2)c2ccc(F)cc2)cc1
b = C[C@@H]1CN(CCCN(c2ccccc2)c2ccccc2)C[C@@H](C)N1
[in] Of a and b , whose reported Ratio is the larger number? # reply format: chosen label
[out] a
(a: 140, b: 87)
